Tested on: Vero E6 infected with SARS-CoV-2
Assay: SARS-CoV-2 infection rate relative to infected DMSO; higher = more infection, active = 60 or less
Settings: 24 h
measuredMetric: SARS-CoV-2 infection rate (%)
Give the value in % but do not write % after it.

Check out these entries, answers already filled in.
• Cc1ccc(=O)n(-c2ccccc2)c1 [pirfenidone] (10 µM) = 83
• NCCNCCNCCN [trientine] (10 µM) = 106
• O=C1NC(=O)/C(=C/c2ccc3nccc(-c4ccncc4)c3c2)S1 (0.833333 µM) = 108
• O=C(Nc1ccccc1)c1ccccc1O [salicylanilide] (10 µM) = 110

Let us move to another entry and its SARS-CoV-2 infection rate.
Short answer for O=C1c2ccccc2CCC1CNCCc1ccc(O)cc1 (centres undefined) (10 µM) : SARS-CoV-2 infection rate was 106

----------
Tested on: Vero E6 infected with SARS-CoV-2
Assay: SARS-CoV-2 infection rate relative to infected DMSO; higher = more infection, active = 60 or less
Conditions: 24 h
Use one of these outcomes when replying: active, inactive

Check out these entries, answers already filled in.
- COc1ccc(CNCc2cccc3ccccc23)cc1 (10 µM): inactive
- Cc1cnc(-c2ccccc2C(C)C)nc1NCc1ccc(-n2ccnn2)cc1 (10 µM): inactive

// query Fill in: this test's call for N[C@@H](C(=O)O)c1ccc(C(=O)O)c(C(=O)O)c1 (racemic) (10 µM) is ___
// result inactive

// query Fill in: this test's call for NC(=O)NC1NC(=O)NC1=O (centres undefined) [allantoin] (10 µM) is ___
// result inactive

----------
Tested on: Vero E6 infected with SARS-CoV-2
Assay: inhibition of SARS-CoV-2 cytopathic effect; higher = more antiviral protection, active = above 15
Conditions: 833.33 nM; 48 h
Property: inhibition of SARS-CoV-2 cytopathic effect; scope: individual compounds
Give the value in % but do not write % after it.

Check out these entries, answers already filled in.
• C=C1CC[C@H](O)C/C1=C/C=C1\CCC[C@]2(C)[C@@H]([C@H](C)CCCC(C)C)CC[C@@H]12 = -2.03
• C=C1CC[C@@]2(O)[C@H]3Cc4ccc(O)c5c4[C@@]2(CCN3CC2CC2)[C@H]1O5 = -1.46
• OC(CN1CCN(c2cccc(Cl)c2)CC1)C(c1ccccc1)c1ccccc1 (centres undefined) = 1.94

Let us move to another entry and its inhibition of SARS-CoV-2 cytopathic effect.
# N#Cc1ccc(C(c2ccc(C#N)cc2)n2cncn2)cc1 with Vero E6 infected with SARS-CoV-2: inhibition of SARS-CoV-2 cytopathic effect is -2.14

----------
Tested on: Vero E6 infected with SARS-CoV-2
Experiment: inhibition of SARS-CoV-2 cytopathic effect; higher = more antiviral protection, active = above 15
Conditions: 100 nM; 48 h
Property: inhibition of SARS-CoV-2 cytopathic effect; scope: individual compounds
Give the value in % but do not write % after it.

Check out these entries, answers already filled in.
- COc1cc(C(=O)NC2CCCNC2)cc(OC)c1OC (centres undefined) [troxipide]: 1.46
- C[C@H]1NC(=O)NC1=O: -0.63
- CCOC(=O)N[C@@H]1CC[C@@H]2[C@@H](C1)C[C@H]1C(=O)O[C@H](C)[C@H]1[C@H]2/C=C/c1ccc(-c2cccc(F)c2)cn1: -0.3

Let us move to another entry and its inhibition of SARS-CoV-2 cytopathic effect.
# CC(C)C(=O)Oc1ccc(CO)cc1[C@H](CCN(C(C)C)C(C)C)c1ccccc1 with Vero E6 infected with SARS-CoV-2: inhibition of SARS-CoV-2 cytopathic effect is -0.25

----------
Tested on: Vero E6 infected with SARS-CoV-2
Test: morphology score (similarity to uninfected cells); higher = more like uninfected cells
Conditions: 24 h
Property: morphology score; scope: individual compounds

Check out these entries, answers already filled in.
- Cc1cc(OCC(=O)O)cc(C)c1Cc1ccc(O)c(C(C)C)c1 [sobetirome] (10 µM): 0.0763
- Nc1c(Br)cc(Br)cc1CN[C@H]1CC[C@H](O)CC1 [ambroxol] (10 µM): -0.155
- Cc1noc(C)c1-c1cc(O)cc([C@@H](O)c2ccccc2)c1 (10 µM): 0.154
- CN(C)Cc1ccc(-c2nc3cccc4c3n2CCNC4=O)cc1 (10 µM): 0.092
- O=C(NCCCCCCNC(=O)ON=C1CCCCC1)ON=C1CCCCC1 (10 µM): 0.11

Short answer for NC(=O)CN1C=CCC(C(N)=O)=C1 [caricotamide] (10 µM) : morphology score was 0.109

----------
System: Vero E6 infected with SARS-CoV-2
Test: morphology score (similarity to uninfected cells); higher = more like uninfected cells
Settings: 24 h
Property: morphology score; scope: individual molecules
Response field accepts a number only; no unit should be typed.

Check out these entries, answers already filled in.
* NC12CC3CC(CC(C3)C1)C2 [amantadine] (10 µM) | -0.265
* COC1CCN(C(=O)c2cc(Cc3n[nH]c(=O)c4ccccc34)ccc2F)CC1 (10 µM) | 0.118
* Cn1nc(C(C)(C)C)cc1C(=O)N[C@@H](Cc1cccc(Cl)c1)C(=O)NCC#N [cathepsin-inhibitor-1] (10 µM) | 0.186
* CC(=O)Nc1ccc(NC(=S)NC(=O)c2ccc(C(C)(C)C)cc2)cc1 [tenovin-1] (10 µM) | -0.0316
* NCCc1c[nH]c2ccc(O)cc12 [serotonin] (10 µM) | 0.0634

Short answer for CC(C)(C)c1ccc(C(O)CCCN2CCC(C(O)(c3ccccc3)c3ccccc3)CC2)cc1 (stereo not drawn) [terfenadine] (10 µM) : morphology score was 0.133

Short answer for c1ccc2c(-c3cnn4cc(-c5ccc(N6CCNCC6)cc5)cnc34)ccnc2c1 (10 µM) : morphology score was -0.0877

Short answer for COc1cc2c(Oc3ccc(NC(=O)C4(C(=O)Nc5ccc(F)cc5)CC4)cc3F)ccnc2cc1OCCCN1CCOCC1 [foretinib] (10 µM) : morphology score was 0.152

----------
System: Vero E6 infected with SARS-CoV-2
Experiment: inhibition of SARS-CoV-2 cytopathic effect; higher = more antiviral protection, active = above 15
Conditions: 1 nM; 48 h
measuredMetric: inhibition of SARS-CoV-2 cytopathic effect (%)
Give the value in % but do not write % after it.

* O=C(CCc1ccc(O)cc1)c1c(O)cc(O)cc1O[C@@H]1O[C@H](CO)[C@@H](O)[C@H](O)[C@H]1O [phlorizin] | -2.08

Short answer for O=C1Nc2ccc(I)cc2C1=Cc1cc(Br)c(O)c(Br)c1 : inhibition of SARS-CoV-2 cytopathic effect was 2.36

Short answer for COc1ccc(CC(=O)NC(/N=C(\NC#N)Nc2cccc3ncccc23)C(C)(C)C)cc1OC (stereo unspecified) : inhibition of SARS-CoV-2 cytopathic effect was -0.32

----------
Property: inhibition of SARS-CoV-2 cytopathic effect; scope: individual molecules
Test system: Vero E6 infected with SARS-CoV-2
Experiment: inhibition of SARS-CoV-2 cytopathic effect; higher = more antiviral protection, active = above 15
Settings: 8.33 nM; 48 h
Give the value in % but do not write % after it.

Check out these entries, answers already filled in.
* CC(C)n1nc(C#Cc2ccccc2)c2c(N)ncnc21 | -1.43
* Cc1cc(C(=O)Nc2nc3cccc(Cl)c3n2[C@@H]2CCCCN(C(=O)/C=C/CN(C)C)C2)ccn1 | -0.94
* Cc1c(C)c2c(c(C)c1O)CC[C@@](C)(CCC[C@H](C)CCC[C@H](C)CCCC(C)C)O2 | 3.3
* NCCCCCC(O)(P(=O)(O)O)P(=O)(O)O | -0.27
* CC(C)c1ccc(CC(=O)N2CCC[C@@H](c3cccc(OC(C)(C)C(=O)O)c3)C2)cc1 | 0.54

# O=C(O)C1=CCNCC1 with Vero E6 infected with SARS-CoV-2: inhibition of SARS-CoV-2 cytopathic effect is 0.98

# CC[C@@]1(O)C(=O)OCc2c1cc1n(c2=O)Cc2c-1nc1cc(F)c(C)c3c1c2[C@@H](N)CC3 [exatecan-mesylate] with Vero E6 infected with SARS-CoV-2: inhibition of SARS-CoV-2 cytopathic effect is -0.39

# CN(C)CC/C=C1/c2ccccc2Sc2ccc(Cl)cc21 with Vero E6 infected with SARS-CoV-2: inhibition of SARS-CoV-2 cytopathic effect is 3.98

# CC(C)(O)CS(=O)(=O)Nc1ccc2c(c1)CCN(C(=O)COc1cccnc1)C2 with Vero E6 infected with SARS-CoV-2: inhibition of SARS-CoV-2 cytopathic effect is -2.55

# COc1[nH]c2ccc(F)cc2c1C(=O)OCC1CCN(CCNS(C)(=O)=O)CC1 with Vero E6 infected with SARS-CoV-2: inhibition of SARS-CoV-2 cytopathic effect is 2.46

# O=C(c1cc2ccccc2o1)N1CCN(Cc2ccccc2)CC1 with Vero E6 infected with SARS-CoV-2: inhibition of SARS-CoV-2 cytopathic effect is 1.94

# Cc1cn([C@H]2O[C@@H](CO)[C@H](O)[C@H]2F)c(=O)[nH]c1=O with Vero E6 infected with SARS-CoV-2: inhibition of SARS-CoV-2 cytopathic effect is -0.16

# O=c1c(-c2ccc(O)cc2)coc2c([C@@H]3O[C@H](CO)[C@@H](O)[C@H](O)[C@H]3O)c(O)ccc12 [kakonein] with Vero E6 infected with SARS-CoV-2: inhibition of SARS-CoV-2 cytopathic effect is -3.42

# CC(C)[N+](C)(CCC(C(N)=O)(c1ccccc1)c1ccccc1)C(C)C [isopropamide-iodide] with Vero E6 infected with SARS-CoV-2: inhibition of SARS-CoV-2 cytopathic effect is 1.26

# BrC1C(Br)C(Br)C(Br)C(Br)C1Br (stereo unspecified) with Vero E6 infected with SARS-CoV-2: inhibition of SARS-CoV-2 cytopathic effect is -1.15

# CCCCC/N=c1\ccn(Cc2ccccc2)c2ccccc12 with Vero E6 infected with SARS-CoV-2: inhibition of SARS-CoV-2 cytopathic effect is -0.49

# O=C(Nc1cccnc1)c1cc(-c2ccnc(F)c2)ccc1OCc1ccccc1 with Vero E6 infected with SARS-CoV-2: inhibition of SARS-CoV-2 cytopathic effect is -0.98

# c1cc(CN2CCCCC2)cc(OCCCNc2nc3ccccc3s2)c1 [zolantidine] with Vero E6 infected with SARS-CoV-2: inhibition of SARS-CoV-2 cytopathic effect is 3.51

# Oc1ccc(OCc2ccccc2)cc1 with Vero E6 infected with SARS-CoV-2: inhibition of SARS-CoV-2 cytopathic effect is -1.35

# COc1cc(C(=O)NC2CCCNC2)cc(OC)c1OC (stereo unspecified) [troxipide] with Vero E6 infected with SARS-CoV-2: inhibition of SARS-CoV-2 cytopathic effect is -0.47

# N=C(N)NCCCC[C@@H]1NC(=O)CCSSC[C@@H](C(N)=O)NC(=O)[C@@H]2CCCN2C(=O)[C@H](Cc2c[nH]c3ccccc23)NC(=O)[C@H](CC(=O)O)NC(=O)CNC1=O [eptifibatide] with Vero E6 infected with SARS-CoV-2: inhibition of SARS-CoV-2 cytopathic effect is 8.08

# O=c1c(O)c(-c2cc(O)c(O)c(O)c2)oc2cc(O)cc(O)c12 with Vero E6 infected with SARS-CoV-2: inhibition of SARS-CoV-2 cytopathic effect is 0.2

# Cc1ccccc1/N=N/c1ccc(NC(=O)c2ccnn2C)c(C)c1 with Vero E6 infected with SARS-CoV-2: inhibition of SARS-CoV-2 cytopathic effect is 0.89

# CNc1ncnc2c1ncn2[C@@H]1O[C@H](CO)[C@@H](O)[C@H]1O with Vero E6 infected with SARS-CoV-2: inhibition of SARS-CoV-2 cytopathic effect is 1.97

# CN(C)C(=O)Nc1cccc(-c2ccc(N(C)C)cc2)c1 with Vero E6 infected with SARS-CoV-2: inhibition of SARS-CoV-2 cytopathic effect is -1.64

# CC(C)=CCC/C(C)=C/CC/C(C)=C/C=C/C(C)=C/C(=O)O with Vero E6 infected with SARS-CoV-2: inhibition of SARS-CoV-2 cytopathic effect is 0.23

# CCCCC[C@H](O)/C=C/[C@H]1[C@H](O)CC(=O)[C@@H]1C/C=C\CCCC(=O)O with Vero E6 infected with SARS-CoV-2: inhibition of SARS-CoV-2 cytopathic effect is 0.16

# CCCCCn1cc(C(=O)NC23CC4CC(CC(C4)C2)C3)c(=O)c2cc(-c3ccccc3)ccc21 with Vero E6 infected with SARS-CoV-2: inhibition of SARS-CoV-2 cytopathic effect is -3

Origin of measurements: the supplement of paper PMC13380429
